// fraction unbound at 4 h, 10 µM lookup, one value per entry
# experiment_summary: Protein binding in human plasma at 10 uM after 4 hrs by RF-MS analysis
# Format: ADME, cell-free
# run_parameters: read-out: PPB (converted)
observable: fraction unbound at 4 h, 10 µM

>>> print(df.to_string())
                     smiles_text  assay_result
0  Clc1cc(NCc2ccco2)c2nc[nH]c2n1         0.871
1  Clc1nc(NCc2ccco2)c2[nH]ccc2n1         0.871
2     Cc1oc2ncnc(NCc3ccco3)c2c1C         0.871
3       c1coc(CNc2ncnc3ccsc23)c1         0.871
